Where these numbers come from: patent US11299475B2

# Target desc: PGI2 receptor (Homo sapiens, UniProt P43119)
# Construct: host or cells: thawed 'PGI2 cell' suspension
# Sequence (P43119 whole entry, species assumed): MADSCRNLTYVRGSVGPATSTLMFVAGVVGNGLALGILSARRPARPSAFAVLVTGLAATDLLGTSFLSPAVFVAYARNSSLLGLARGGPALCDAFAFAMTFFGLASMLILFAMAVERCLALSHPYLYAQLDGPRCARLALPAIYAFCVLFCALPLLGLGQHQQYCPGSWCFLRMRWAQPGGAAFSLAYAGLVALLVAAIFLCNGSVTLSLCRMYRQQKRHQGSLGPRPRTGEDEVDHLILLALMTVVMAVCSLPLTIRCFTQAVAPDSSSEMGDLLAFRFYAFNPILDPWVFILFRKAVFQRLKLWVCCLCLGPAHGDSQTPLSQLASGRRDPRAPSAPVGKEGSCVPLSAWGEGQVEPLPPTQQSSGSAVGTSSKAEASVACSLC
# Protocol text: PGI2 cAMP cell assay in vitro (HTRF cAMP)
# Format: cell-based
# Condition: cells in vitro
Attribute measured: EC50 (nM)

Use these answered entries as a reference point.
Report value only: EC50, PGI2 receptor (Homo sapiens, UniProt P43119), O=C(O)COCC1CCN(c2ccnc(N(c3ccccc3)c3ccccc3)n2)CC1 [Compound 16] 23.5

Provide the reported EC50 (system: PGI2 receptor (Homo sapiens, UniProt P43119)) for O=C(O)COCC1(F)CCN(c2cncc(N(c3ccccc3)c3ccccc3)n2)CC1 [Compound 17] 0.29

(P) O=C(O)COCC1CCN(c2cncc(N(c3ccccc3)c3ccc(OC(F)(F)F)cc3)n2)CC1 [Compound 6]
(Q) O=C(O)COC[C@H]1CC[C@@H](c2cncc(N(c3ccccc3)c3ccccc3)n2)CC1 [Compound 48a]
Of P and Q , which carries the smaller reported EC50 figure? Response format: the label of the selected entry. P

(I) O=C(O)COCC1(F)CCN(c2cncc(N(c3ccccc3)c3ccc(F)cn3)n2)CC1 [Compound 32]
(II) COc1ccc(N(c2ccccc2)c2cncc(N3CCC(COCC(=O)O)CC3)n2)cc1 [Compound 5]
(III) CCOC(=O)COCC1(F)CCN(c2cncc(N(c3ccccc3)c3ccccc3)n2)CC1 [Compound 19]
List these items ordered by EC50, big to small. Labels, ranked as asked. III, II, I
(III: 6.11 nM, II: 3.74 nM, I: 1.41 nM)
